# Test system: THP-1 viability, CellTiter-Glo luminescence, 72 h
# measurement description: THP-1 cell cytotoxicity, dose response, cytotoxicity control for Salmonella PhoP regulon inhibitors, S. typhimurium screen hits (AID 2253)
pEC50: −log10 of the molar value.
assay endpoint: pEC50

O=C1c2ccccc2NC(c2ccc(-c3cccc([N+](=O)[O-])c3)o2)N1O (stereo unspecified)
5.18
CCCCCCCSc1cc(OC)c(CCN(C)C)cc1OC
4.85
COc1ccc(OC)c(C2C=C(C34CC5CC(CC(C5)C3)C4)NC(=S)N2)c1 (stereo unspecified)
4.30
CC(NCc1ccc(Cl)c(Cl)c1)C(O)c1ccccc1 (stereo unspecified)
4.40
Oc1ccc(/C=N/NC(=S)Nc2cccnc2)c(O)c1
5.49
c1ccc2c(C3=NNC(=NC4CC4)SC3)c[nH]c2c1
4.76

Data provenance is PubChem BioAssay AID2253.
